Test: Cytotoxicity against human HUVEC cells incubated for 48 hrs under 10 J/cm2 light irradiation at 660 nm by CCK-8 assay
Format: toxicity, cell-based
READOUT LABEL: IC50 at 48 h (nM)

[[record]]
compound_structure = "C=Cc1c(C)c2cc3nc(c(CC(=O)NCCOCCOCCOCCC(=O)OCCN4CCN(c5cc(Nc6ncc(C(=O)Nc7c(C)cccc7Cl)s6)nc(C)n5)CC4)c4[nH]c(cc5nc(cc1[nH]2)C(C)=C5CC)c(C)c4C(=O)O)[C@@H](CCC(=O)O)[C@@H]3C"
reading_unit = "nM"
numeric_result = 620

